Listed here are binders together with their documented koff.
TEST_SYSTEM: T1, human TfR ectodomain fused to a mouse IgG1 Fc fragment (human, UniProt P02786 89-760)
T1 construct: extracellular domain; ectodomain fused to the N-terminal end of the Fc, made in-house; not shown: mouse IgG1 Fc fragment
T1 sequence (P02786 89-760): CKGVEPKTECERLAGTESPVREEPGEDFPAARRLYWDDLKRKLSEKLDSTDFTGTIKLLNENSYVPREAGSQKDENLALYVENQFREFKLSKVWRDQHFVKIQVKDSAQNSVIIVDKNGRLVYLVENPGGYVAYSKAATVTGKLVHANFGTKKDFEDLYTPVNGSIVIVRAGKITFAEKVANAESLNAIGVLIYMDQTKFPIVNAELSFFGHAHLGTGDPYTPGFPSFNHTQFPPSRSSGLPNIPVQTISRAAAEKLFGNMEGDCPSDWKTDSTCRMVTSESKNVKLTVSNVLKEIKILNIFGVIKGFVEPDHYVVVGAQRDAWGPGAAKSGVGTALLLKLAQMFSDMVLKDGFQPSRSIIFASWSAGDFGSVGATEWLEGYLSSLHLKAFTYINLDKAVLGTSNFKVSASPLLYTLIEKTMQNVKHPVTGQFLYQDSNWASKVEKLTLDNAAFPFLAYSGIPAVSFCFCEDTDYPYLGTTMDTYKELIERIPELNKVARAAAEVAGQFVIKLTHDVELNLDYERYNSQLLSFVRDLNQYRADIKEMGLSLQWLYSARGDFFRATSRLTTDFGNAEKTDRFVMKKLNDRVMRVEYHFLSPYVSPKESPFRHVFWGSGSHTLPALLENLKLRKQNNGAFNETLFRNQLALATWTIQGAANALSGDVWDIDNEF
MEASUREMENT_PROTOCOL: SPR, kinetic
OBSERVATION_TYPE: koff (s⁻¹)

BINDER	READOUT_NUMBER
VHH A5 (C5^V5) (VHH) VHH: EVQLVESGGGVVQPGGSLKLSCVASGTDFSINFIRWYRQAPGKQREFVAGFTATGNTNYADSMKGRFTISRDNTKNAVYLQIDSLKPEDTAVYYCAMLDKWGQGTQVTVSS	0.0509
VHH A13 (C5^V13) (VHH) VHH: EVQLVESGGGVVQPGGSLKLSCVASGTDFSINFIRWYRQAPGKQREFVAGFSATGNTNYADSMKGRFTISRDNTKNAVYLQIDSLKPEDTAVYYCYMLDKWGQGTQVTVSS	0.000392
C5^V13h20 (VHH) VHH: EVQLVESGGGVVQPGGSLRLSCAASGTDFSINFIRWYRQAPGKGLEFVAGFSATGNTNYADSVKGRFTISRDNAKNAVYLQMNSLRPEDTAVYYCYMLDKWGQGTQVTVSS	0.00357
C5^h19 (VHH) VHH: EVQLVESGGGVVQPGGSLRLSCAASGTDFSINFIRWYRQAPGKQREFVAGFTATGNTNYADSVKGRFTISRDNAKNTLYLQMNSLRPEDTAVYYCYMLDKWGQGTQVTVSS	0.00904
VHH A16 (C5^V16) (VHH) VHH: EVQLVESGGGVVQPGGSLKLSCVASGTDFSINFIRWYRQAPGKQREFVAGFTATGNTNYADSMKGRFTISRDNTKNAVYLQIDSLKPEDTAVYYCYILDKWGQGTQVTVSS	0.00577
C5^h20 (VHH) VHH: EVQLVESGGGVVQPGGSLRLSCAASGTDFSINFIRWYRQAPGKGLEFVAGFTATGNTNYADSVKGRFTISRDNAKNAVYLQMNSLRPEDTAVYYCYMLDKWGQGTQVTVSS	0.00105
C5^V31 (VHH) VHH: EVQLVESGGGVVQPGGSLKLSCVASGTDRSINFIRWYRQAPGKQREFVAGFTATGNTNYADSMKGRFTISRDNTKNAVYLQIDSLKPEDTAVYYCYMLDKWGQGTQVTVSS	0.0182
B8^V40 (VHH) VHH: EVQLVESGGGVVQPGGSLRLSCAASGEIKSINFMRWYRQAPGKQREWVSGFTRDGSTNYPDSAKGRFTISRDNAKNTVYLQIDSLKPEDTAVYYCYMLDTWGQGTQVTVSS	0.0283
